pIC50: −log10 of the molar value.
// cross-study collection: pIC50 for Aurora kinase B (Homo sapiens, UniProt Q96GD4)
measured-quantity: pIC50

COc1cc2c(Oc3ccc(NC(=O)Nc4ccccc4)cc3)ccnc2cc1OCCC[C@H](N)C(=O)OC1CCCC1 = 5.30 to 5.70
CN1CCC(Oc2ccc(-c3n[nH]c4ccc(C(=O)NC(c5cccs5)C5CC5)cc34)cc2)CC1 (stereo not drawn) = ≥ 5.30
O=C(Nc1ccc(Nc2ccnc3[nH]c(=O)c(F)cc23)cc1)c1ccc(F)cc1C(F)(F)F = 6.52 to 9.00
CN1CCc2cc(-c3n[nH]c4ccc(NC(=O)C(c5ccsc5)N5CCCC5)cc34)ccc21 (stereo not drawn) = ≥ 5.30
O=CN1CCC(Oc2ccc(-c3n[nH]c4ccc(C(=O)NC(c5ccccn5)C5CC5)cc34)cc2)CC1 (stereo not drawn) = ≥ 5.30
COc1cc([C@@H](CN2CCC2)Nc2ncnc3c(C(N)=O)cccc23)cc(F)c1F = < 9.00
CN1CCN(c2ccc(-c3n[nH]c4cc(C=C5C(=O)Nc6ccccc65)ccc34)cn2)CC1 (mixture of isomers) = > 5.30
NC(=O)[C@H]1[C@H]2C[C@H]3[C@H]1Nc1nc(ncc1F)Nc1cccc(c1)[C@@H](O)CS[C@@H]3C2 = 7.00 to 9.00
Cc1ccc2c(c1)/C(=C\c1ccc3c(/C=C/c4ccncc4)n[nH]c3c1)C(=O)N2 = > 5.30
C=CC1CC2/C=C/COc3cccc(c3)Nc3ncc(F)c(n3)N[C@H]2[C@H]1C(N)=O (stereo partly drawn) = 6.00 to 7.00
C/C(=C1\C(=O)Nc2ccccc21)c1ccc2cn[nH]c2c1 = 4.30 to 5.30
COc1cc2c(Oc3ccc(NC(=O)c4ccc(F)cc4)cc3)ccnc2cc1OCC[C@H](N)C(=O)O = > 5.70
CCc1cccc(CC)c1NC(=O)Nc1ccc2[nH]nc(-c3ccc(OC4CCN(C)CC4)cc3)c2c1 = ≥ 5.30
COc1cc2c(Nc3ccc(NC(=O)c4ccccc4)cc3)ccnc2cc1OCC[C@H](N)C(=O)OC1CCCC1 = < 5.30
Cc1cc(Nc2cccc(CN3CCN(C(=O)c4cccc(Cl)c4F)CC3)n2)n[nH]1 = 6.11
O=C(c1cccc(C(F)(F)F)c1F)N1CCN(Cc2cncc(Nc3cc[nH]n3)n2)CC1 = 5.96
COc1cc2c(Oc3ccc(NC(=O)Nc4ccc(C(F)(F)F)cc4)cc3)ccnc2cc1OCCC[C@@H](N)C(=O)O = > 5.70
O=CN1CCC(Oc2ccc(-c3n[nH]c4ccc(NC(=O)C(c5ccccn5)C5CCCC5)cc34)cc2)CC1 (stereo not drawn) = ≥ 5.30
O=CN1CCC(Oc2ccc(-c3n[nH]c4ccc(C(=O)N[C@@H](c5ncccc5Cl)C5CC5)cc34)cc2)CC1 = ≥ 5.30
C[C@H]1CCCN1[C@H](C(=O)Nc1ccc2[nH]nc(-c3ccc(N4CCOCC4)cc3)c2c1)c1cccs1 = ≥ 5.30
O=C(O)CCc1c(/C=C2\C(=O)Nc3ccc(NS(=O)(=O)c4cc(F)cc(F)c4)cc32)[nH]c2c1C(=O)CCC2 = 6.61

###

Listed below are compounds with IC50 for Aurora kinase B (Homo sapiens), each taken from published literature.
measured-quantity: IC50

COc1cc2c(Oc3ccc(NC(=O)Nc4ccc(C(F)(F)F)cc4)cc3F)ccnc2cc1OCC[C@H](N)C(=O)OC1CCCC1 = 2 to 5 µM
NC(=O)c1cccc2c(N[C@H](CN3CCC3)c3cc(F)c(F)cc3F)ncnc12 = 0.22 µM
NC(=O)c1cccc2c(N[C@H](CN3CCC3)c3ccc(F)cc3F)ncnc12 = 0.2 µM
CCc1cccc(CC)c1NC(=O)Nc1ccc2[nH]nc(-c3ccc(N4CCOCC4)cc3)c2c1 = ≤ 5 µM
NC(=O)[C@H]1[C@H]2C[C@H]3[C@H]1Nc1nc(ncc1F)Nc1ccc(F)c(c1)CC(=O)O[C@@H]3C2 = 1 to 6.25 µM
COc1cc2c(Oc3ccc(NC(=O)Nc4ccc(C(F)(F)F)cc4)cc3)ccnc2cc1OCC[C@H](N)C(=O)O = < 2 µM
CN1CCC(Oc2ccc(-c3n[nH]c4ccc(C(=O)NC(c5ccsc5)C5CCCC5)cc34)cc2)CC1 (stereo not drawn) = ≤ 5 µM
O=C(O)/C=C/c1n[nH]c2cc(C=C3C(=O)Nc4ncccc43)ccc12 (mixture of isomers) = < 5 µM
CCOC(=O)CCc1c(/C=C2\C(=O)Nc3ccc(NS(=O)(=O)c4cc(F)cc(F)c4)cc32)[nH]c2c1C(=O)CCC2 = 0.177 µM

###

# merged literature set: pIC50 with Aurora kinase B (Homo sapiens)
pIC50: −log10 of the molar value.
measured-quantity: pIC50

COc1cc2c(Oc3ccc(NC(=O)Nc4ccccc4)cc3)ccnc2cc1OCC[C@@H](N)C(=O)OC1CCCC1 = > 5.70
COCCN1CCC(Oc2ccc(-c3n[nH]c4ccc(NC(=O)C(c5ccsc5)N5CCCC5)cc34)cc2)CC1 (stereo not drawn) = ≥ 5.30
Cc1cc(Nc2cc(NC3CCOCC3)nc(-c3cc4ccccc4o3)n2)n[nH]1 = ≥ 6.00
COc1cc(-c2n[nH]c3ccc(NC(=O)C(c4ccsc4)N4CCCC4)cc23)ccc1OC1CCNCC1 (stereo not drawn) = ≥ 5.30
CN1CCC(Oc2ccc(-c3n[nH]c4ccc(C(=O)NC(c5ccccc5)C5CC5)cc34)cc2Cl)CC1 (stereo not drawn) = ≥ 5.30
COc1cc2c(Oc3ccc(NS(=O)(=O)c4ccccc4)cc3)ccnc2cc1OCC[C@H](N)C(=O)O = 5.30 to 5.70
COc1cc2c(Oc3ccc(NC(=O)Nc4ccc(C(F)(F)F)cc4)cc3F)ccnc2cc1OCC[C@H](N)C(=O)O = > 5.70
O=C1Nc2ccc(Cl)cc2C1=Cc1ccc2c(-c3cccnc3)n[nH]c2c1 (mixture of isomers) = > 5.30
CN1CCN(c2ccc(-c3n[nH]c4ccc(NC(=O)C(c5ccsc5)N5CCCC5)cc34)cc2)CC1 (stereo not drawn) = ≥ 5.30
CN(C)CCCNc1ccc2c(c1)C(=Cc1ccc3c(/C=C/c4ccncc4)n[nH]c3c1)C(=O)N2 (mixture of isomers) = > 5.30
COc1ccc(NC(=O)Nc2ccc3[nH]nc(-c4ccc(OC5CCN(C)CC5)cc4)c3c2)c(C)c1 = ≥ 5.30
CN1CCC(Oc2ccc(-c3n[nH]c4ccc(NC(=O)C5c6ccccc6CCN5C)cc34)cc2)CC1 (stereo not drawn) = ≥ 5.30
COc1cc2c(Oc3ccc(CNC(=O)c4ccccc4)cc3)ccnc2cc1OCC[C@H](N)C(=O)O = > 5.70
CC[C@@H](NC(=O)c1ccc2[nH]nc(-c3ccc(OC4CCN(C)CC4)cc3)c2c1)c1cccs1 = ≥ 5.30
O=C(NC(c1ccsc1)C1CCC1)c1ccc2[nH]nc(-c3ccc(N4CCOCC4)cc3)c2c1 (stereo not drawn) = ≥ 5.30
Cc1cc(Nc2cc(NC3CCOCC3)nc(-c3cccc(N(C)C)c3)n2)n[nH]1 = ≥ 6.00
O=C1Nc2ccccc2/C1=C\c1ccc2c(/C=C/c3ccccc3Cl)n[nH]c2c1 = > 5.30
NC(=O)[C@H]1[C@H]2C[C@H]3[C@H]1Nc1nc(ncc1F)Nc1cccc(c1)CCC(=O)O[C@@H]3C2 = 6.00 to 7.00

###

IC50 for Aurora kinase B (Homo sapiens, UniProt Q96GD4) - collated from the literature.
measured-quantity: IC50

COc1cc2c(Oc3ccc(NC(=O)c4ccccc4)cc3)ccnc2cc1OCC[C@@H](N)C(=O)OC1CCCC1 = 2 to 5 µM
Cc1ccc2c(c1)/C(=C\c1ccc3c(/C=C/C(=O)N(C)CCN(C)C)n[nH]c3c1)C(=O)N2 = < 5 µM
CN1CCC(Oc2ccc(-c3n[nH]c4ccc(NC(=O)C(c5ccccc5)C5CC5)cc34)cc2)CC1 (stereo not drawn) = ≤ 5 µM

###

IC50 for Aurora kinase B (Homo sapiens, UniProt Q96GD4) - collated from the literature.
measured-quantity: IC50 (nM)

CC(C)(O)c1cn2ccc(Nc3ncc(Cl)c(NC4CCN(c5ccc(C#N)cn5)CC4)n3)cc2n1 = 125
Cn1cc(Nc2ncc(Cl)c(NC3COC4C(NS(C)(=O)=O)COC34)n2)cn1 (stereo not drawn) = 31
NC(=O)c1cccc2c(N[C@H](CN3CCC3)c3cc(F)ccc3Cl)ncnc12 = 259
c1ccc(CN2CCN(c3ccc(Nc4nccc(-c5c[nH]c6ccccc56)n4)cc3)CC2)cc1 = 1410

###

Record set: IC50 | Aurora kinase B (Homo sapiens, UniProt Q96GD4) | literature, multiple sources.
measured-quantity: IC50

NC(=O)[C@H]1[C@H]2C[C@H]3[C@H]1Nc1nc(ncc1F)Nc1cccc(c1)N(Cc1cccs1)C(=O)CS[C@@H]3C2 = 1 to 6.25 µM
O=C(Nc1ccc2[nH]nc(-c3ccc4c(c3)OCCCO4)c2c1)C(c1ccsc1)N1CCCC1 (stereo not drawn) = ≤ 5 µM
Clc1ccc(-c2nnc(Nc3ccc(Oc4ccnn5cccc45)cc3)c3ccccc23)cc1 = < 0.1 µM
